Test system: MRC5
Test: Cytotoxicity against human MRC5 cells assessed as reduction in cell viability after 72 hrs by CellTiter Glo assay
Assay type: cell-based
Details: MRC5, 72 h
READOUT KIND: IC50

Here is how some molecules turned out for IC50.
* C/C=C1\NC(=O)C(C(=O)[C@@]2(C)[C@@H]3CC[C@@H](C)C[C@H]3C=C[C@H]2/C=C/C)=C1O | 24.2 µM
* C/C=C/[C@@H]1C=C[C@@H]2C[C@H](C)CC[C@H]2[C@]1(C)/C(O)=C1\C(=O)N[C@@H]([C@H](C)O)C1=O | 40 µM
* C/C=C1\NC(=O)C(C(=O)[C@@]2(C)[C@@H]3CC[C@@H](CO)C[C@H]3C=C[C@H]2/C=C/C)=C1O | 106 µM

For the next question, use this molecule.
Incoming: Given the molecule `C/C=C/[C@@H]1C=C[C@@H]2C[C@H](C)CC[C@H]2[C@]1(C)/C(O)=C1\C(=O)N[C@@H]([C@@H](C)O)C1=O` , what is its reported IC50?
Outgoing: 50.3 µM
